tgt: Mu-type opioid receptor (Rattus norvegicus)
Sequence (P33535 whole entry): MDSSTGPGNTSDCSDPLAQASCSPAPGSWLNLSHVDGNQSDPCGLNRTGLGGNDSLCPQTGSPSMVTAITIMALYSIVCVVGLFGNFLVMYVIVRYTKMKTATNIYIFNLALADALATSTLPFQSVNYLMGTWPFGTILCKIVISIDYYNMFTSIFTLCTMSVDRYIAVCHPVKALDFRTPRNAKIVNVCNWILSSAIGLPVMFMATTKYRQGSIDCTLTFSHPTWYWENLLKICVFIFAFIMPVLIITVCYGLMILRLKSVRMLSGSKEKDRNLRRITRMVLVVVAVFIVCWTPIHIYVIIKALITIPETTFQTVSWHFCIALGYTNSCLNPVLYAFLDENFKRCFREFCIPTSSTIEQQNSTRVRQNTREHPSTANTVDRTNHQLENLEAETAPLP
run description: Inhibitory activity against [3H]DAMGO binding to Opioid receptor mu 1 in rat brain membranes
Measured pIC50 accompanies every entry in the list below.
Remember the convention: pIC50 equals -log10 of concentration in molar.

| line notation | result value |
| --- | --- |
| NC(=O)C[C@H](Cc1ccccc1)NC(=O)[C@H](Cc1c[nH]c2ccccc12)NC(=O)[C@@H]1CCCN1C(=O)[C@@H](N)Cc1ccc(O)cc1 | 7.10 |

Tell me pIC50 reported for NC(=O)[C@H](Cc1ccccc1)NC(=O)[C@H](Cc1c[nH]c2ccccc12)NC(=O)[C@@H]1CCCN1C(=O)C[C@@H](N)Cc1ccc(O)cc1
6.00

Tell me pIC50 reported for NC(=O)[C@H](Cc1ccccc1)NC(=O)C[C@H](Cc1c[nH]c2ccccc12)NC(=O)[C@@H]1CCCN1C(=O)[C@@H](N)Cc1ccc(O)cc1
7.63

Tell me pIC50 reported for NC(=O)[C@H](Cc1ccccc1)NC(=O)[C@H](Cc1c[nH]c2ccccc12)NC(=O)C[C@H]1CCCN1C(=O)[C@@H](N)Cc1ccc(O)cc1
7.10

Tell me pIC50 reported for NC(=O)[C@H](Cc1ccccc1)NC(=O)[C@H](Cc1c[nH]c2ccccc12)NC(=O)C[C@@H]1CCCN1C(=O)[C@@H](N)Cc1ccc(O)cc1
8.40

* * *

Please consider the recorded Ki for Mu-type opioid receptor (Rattus norvegicus, UniProt P33535) in what follows.
Give just the numeric value; nM need not be written.

Tell me Ki reported for NC(=O)[C@H](Cc1ccccc1)NC(=O)[C@H](Cc1c[nH]c2ccccc12)NC(=O)C[C@H]1CCCN1C(=O)[C@@H](N)Cc1ccc(O)cc1
67

Tell me Ki reported for NC(=O)C[C@H](Cc1ccccc1)NC(=O)[C@H](Cc1c[nH]c2ccccc12)NC(=O)[C@@H]1CCCN1C(=O)[C@@H](N)Cc1ccc(O)cc1
79

Tell me Ki reported for NC(=O)[C@H](Cc1ccccc1)NC(=O)C[C@H](Cc1c[nH]c2ccccc12)NC(=O)[C@@H]1CCCN1C(=O)[C@@H](N)Cc1ccc(O)cc1
73

Tell me Ki reported for NC(=O)[C@H](Cc1ccccc1)NC(=O)[C@H](Cc1c[nH]c2ccccc12)NC(=O)[C@@H]1CCCN1C(=O)C[C@@H](N)Cc1ccc(O)cc1
26

Tell me Ki reported for NC(=O)[C@H](Cc1ccccc1)NC(=O)[C@H](Cc1c[nH]c2ccccc12)NC(=O)C[C@@H]1CCCN1C(=O)[C@@H](N)Cc1ccc(O)cc1
2.1
